Target: Human glucocorticoid receptors (Homo sapiens, UniProt P04150)
Construct: made in house; host or cells: Sf9 insect cells, recombinant baculovirus (BAC-TO-BAC)
Sequence (P04150 whole entry): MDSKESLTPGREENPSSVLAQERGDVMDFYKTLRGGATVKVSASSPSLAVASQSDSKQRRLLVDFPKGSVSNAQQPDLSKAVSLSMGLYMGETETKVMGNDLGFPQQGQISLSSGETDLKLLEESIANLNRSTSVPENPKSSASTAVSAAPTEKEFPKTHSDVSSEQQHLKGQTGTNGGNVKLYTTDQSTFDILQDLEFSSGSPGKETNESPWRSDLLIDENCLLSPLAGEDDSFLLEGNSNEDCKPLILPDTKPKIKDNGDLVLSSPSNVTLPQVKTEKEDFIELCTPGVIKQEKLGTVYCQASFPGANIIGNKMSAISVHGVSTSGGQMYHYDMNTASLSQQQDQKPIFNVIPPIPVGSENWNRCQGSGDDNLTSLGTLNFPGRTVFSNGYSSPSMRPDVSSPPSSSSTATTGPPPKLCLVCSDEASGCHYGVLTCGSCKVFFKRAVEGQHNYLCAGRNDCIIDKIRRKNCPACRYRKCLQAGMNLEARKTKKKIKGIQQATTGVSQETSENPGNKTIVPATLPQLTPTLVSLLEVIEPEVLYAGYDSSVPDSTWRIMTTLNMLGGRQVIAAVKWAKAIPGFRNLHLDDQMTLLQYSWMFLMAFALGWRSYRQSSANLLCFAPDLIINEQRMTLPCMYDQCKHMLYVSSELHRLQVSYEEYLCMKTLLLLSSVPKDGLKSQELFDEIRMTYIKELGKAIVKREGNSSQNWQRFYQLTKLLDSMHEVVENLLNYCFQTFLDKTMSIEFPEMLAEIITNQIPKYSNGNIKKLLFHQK
Test: Radioligand filter binding assay, displacement of 3[H]-dexamethasone from hGR
Conditions: read-out: GR Binding (% Inhibition at 1.7 μM)
quantity kind: inhibition at 1.7 µM (%)
Answers are plain numbers, in %.

compound: Cc1c(NS(C)(=O)=O)cccc1N(Cc1ccccc1Br)Cc1ccccc1Br [Example 1]
uom: %
readout number: 88.1

Please go through the list and note inhibition at 1.7 µM for each compound.
1. Cc1c(NS(C)(=O)=O)cccc1N(Cc1ccccc1)Cc1ccc(Oc2cccc(OC(C)C(=O)O)c2)cc1 (stereo not drawn) [Example 111]
2. Cc1c(NS(C)(=O)=O)cccc1N(Cc1ccc(Oc2ccc(CCCC(=O)NCCCN3CCCC3=O)cc2)cc1)Cc1ccc(F)cc1F [Example 75]
3. Cc1c(NS(C)(=O)=O)cccc1N(Cc1ccc(OCc2ccoc2)cc1)Cc1ccc(F)cc1F [Example 154]
4. Cc1c(NS(C)(=O)=O)cccc1N(Cc1ccc(Oc2ccc(Cl)c(OCC(=O)O)c2)cc1)Cc1ccccc1F [Example 306]
5. Cc1c(NS(C)(=O)=O)cccc1N(Cc1ccccc1)Cc1ccc(Oc2cccc(OC3CCOC3=O)c2)cc1 (stereo not drawn) [Example 112]

A.
[95.3, 98.3, 92.3, 97, 96.9]

Return reported inhibition at 1.7 µM values for all items listed beneath this line.
1. Cc1c(NS(C)(=O)=O)cccc1N(Cc1ccccc1)Cc1ccc(Oc2ccc(OCC(=O)N(C)CC(=O)O)cc2)cc1 [Example 272]
2. Cc1c(NS(C)(=O)=O)cccc1N(Cc1ccccc1)Cc1ccc(Oc2ccc(CCCCO)cc2)cc1 [Example 101]
3. Cc1c(NS(C)(=O)=O)cccc1N(Cc1ccccc1)Cc1ccc(Oc2ccc(OCCCC(=O)N[C@H](C(=O)O)C(C)C)cc2)cc1 [Example 256]
4. Cc1c(NS(C)(=O)=O)cccc1N(Cc1ccc(F)cc1F)Cc1ccccc1C#N [Example 25]
5. Cc1c(NS(C)(=O)=O)cccc1N(Cc1ccccc1)Cc1ccc(C(=O)c2cccc(OCCN3CCCC3=O)c2)cc1 [Example 248]
6. COCCOCCOc1cccc(Oc2ccc(CN(Cc3ccccc3)c3cccc(NS(C)(=O)=O)c3C)cc2)c1 [Example 69]

A.
1. 90.2
2. 92.9
3. 92.6
4. 87.5
5. 96.7
6. 86.9

Batch lookup, inhibition at 1.7 µM per entry.
1. Cc1c(NS(C)(=O)=O)cccc1N(Cc1ccccc1)Cc1ccc(-c2ccccc2C#N)cc1 [Example 146]
2. Cc1c(NS(C)(=O)=O)cccc1N(Cc1ccccc1)Cc1ccc(Oc2cccc(OCCCNS(C)(=O)=O)c2)cc1 [Example 71]

A.
28.1
95.2

Q. Would you kindly share the measured inhibition at 1.7 µM for CC(=O)c1cccc(Oc2ccc(CN(Cc3ccc(F)cc3F)c3cccc(NS(C)(=O)=O)c3C)cc2)c1 [Example 140] ?
A. 88.1
